The values you see were collected from patent US20190322730A1.

Entries and their Kd
# MEASURED TARGET: T1, human complement component C3 (human, UniProt P01024 23-667; P01024 672-1663)
# T1 construct: also called human C3
# T1 sequence (P01024 23-667, chain 1 of 2): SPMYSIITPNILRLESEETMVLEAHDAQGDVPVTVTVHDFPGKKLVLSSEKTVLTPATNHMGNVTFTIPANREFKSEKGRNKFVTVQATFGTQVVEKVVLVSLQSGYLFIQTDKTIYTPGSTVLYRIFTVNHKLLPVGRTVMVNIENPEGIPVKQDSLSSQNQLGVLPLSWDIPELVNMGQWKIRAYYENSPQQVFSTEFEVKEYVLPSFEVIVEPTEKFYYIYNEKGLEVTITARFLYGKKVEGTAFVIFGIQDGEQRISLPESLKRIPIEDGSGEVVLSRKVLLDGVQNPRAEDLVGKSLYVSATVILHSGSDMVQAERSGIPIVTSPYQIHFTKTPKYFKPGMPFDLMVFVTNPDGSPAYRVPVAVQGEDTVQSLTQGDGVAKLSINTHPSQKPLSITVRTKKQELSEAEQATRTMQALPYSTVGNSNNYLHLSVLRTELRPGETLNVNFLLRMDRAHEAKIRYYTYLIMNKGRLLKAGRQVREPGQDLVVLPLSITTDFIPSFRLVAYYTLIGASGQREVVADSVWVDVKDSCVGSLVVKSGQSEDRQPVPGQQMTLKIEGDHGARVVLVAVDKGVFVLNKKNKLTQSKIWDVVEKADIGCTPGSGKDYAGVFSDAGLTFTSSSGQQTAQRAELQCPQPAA
# T1 sequence (P01024 672-1663, chain 2 of 2): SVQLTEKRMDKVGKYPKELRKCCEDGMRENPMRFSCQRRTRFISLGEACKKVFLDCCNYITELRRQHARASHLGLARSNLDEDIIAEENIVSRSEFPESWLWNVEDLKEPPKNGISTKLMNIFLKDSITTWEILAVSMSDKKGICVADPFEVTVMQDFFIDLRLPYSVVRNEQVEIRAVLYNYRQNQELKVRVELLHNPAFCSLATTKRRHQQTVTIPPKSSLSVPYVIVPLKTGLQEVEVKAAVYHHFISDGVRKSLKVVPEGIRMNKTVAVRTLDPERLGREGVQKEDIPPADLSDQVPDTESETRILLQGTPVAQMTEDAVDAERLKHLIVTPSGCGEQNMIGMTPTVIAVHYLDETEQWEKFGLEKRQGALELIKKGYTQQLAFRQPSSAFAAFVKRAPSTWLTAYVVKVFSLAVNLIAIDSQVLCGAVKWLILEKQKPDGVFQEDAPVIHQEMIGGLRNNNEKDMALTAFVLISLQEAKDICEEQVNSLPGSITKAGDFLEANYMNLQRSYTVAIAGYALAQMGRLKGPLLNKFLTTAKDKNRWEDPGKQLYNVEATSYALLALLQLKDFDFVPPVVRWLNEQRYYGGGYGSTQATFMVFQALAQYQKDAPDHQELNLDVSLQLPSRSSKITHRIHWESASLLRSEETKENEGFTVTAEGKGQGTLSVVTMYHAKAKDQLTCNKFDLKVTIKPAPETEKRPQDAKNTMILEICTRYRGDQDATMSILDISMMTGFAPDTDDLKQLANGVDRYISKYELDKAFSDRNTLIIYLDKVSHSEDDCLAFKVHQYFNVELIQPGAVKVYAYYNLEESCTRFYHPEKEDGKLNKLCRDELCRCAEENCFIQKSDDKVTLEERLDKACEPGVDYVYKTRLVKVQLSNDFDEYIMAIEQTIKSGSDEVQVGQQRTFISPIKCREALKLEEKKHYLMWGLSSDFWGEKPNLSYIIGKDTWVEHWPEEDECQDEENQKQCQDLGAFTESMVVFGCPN
# PROTOCOL DETAILS: SPR (Biacore)

# BINDER, Kd (nM)
rows = [
    ("antibody Hz38G10(G56A) (antibody, human IgG1, kappa, V domains shown, the light chain is the Hz38G10 light chain) VH: QVQLVQSGAEVKKPGASVKVSCKASGYTFTDFYMDWVRQAPGQRLEWMGYIYPHNAGTTYNQQFTGRVTITVDKSASTAYMELSSLRSEDTAVYYCARRGGFDFDYWGQGTLVTVSS VL: DIQMTQSPSSLSASVGDRVTITCKASENVDTYVSWYQQKPGKAPKLLIYGASNRYTGVPSRFSGSGSGTDFTFTISSLQPEDIATYHCGQSHSYPLTFGQGTKLEIKR", 0.27),
    ("antibody Hz38G10 (antibody, human IgG1, kappa, V domains shown, also called humanized 38G10; Hz38G10 intact antibody) VH: QVQLVQSGAEVKKPGASVKVSCKASGYTFTDFYMDWVRQAPGQRLEWMGYIYPHNGGTTYNQQFTGRVTITVDKSASTAYMELSSLRSEDTAVYYCARRGGFDFDYWGQGTLVTVSS VL: DIQMTQSPSSLSASVGDRVTITCKASENVDTYVSWYQQKPGKAPKLLIYGASNRYTGVPSRFSGSGSGTDFTFTISSLQPEDIATYHCGQSHSYPLTFGQGTKLEIKR", 0.3),
    ("antibody Hz38G10(G56T) (antibody, V domains shown, Variant of Hz38G10) VH: QVQLVQSGAEVKKPGASVKVSCKASGYTFTDFYMDWVRQAPGQRLEWMGYIYPHNTGTTYNQQFTGRVTITVDKSASTAYMELSSLRSEDTAVYYCARRGGFDFDYWGQGTLVTVSS VL: DIQMTQSPSSLSASVGDRVTITCKASENVDTYVSWYQQKPGKAPKLLIYGASNRYTGVPSRFSGSGSGTDFTFTISSLQPEDIATYHCGQSHSYPLTFGQGTKLEIK", 0.23),
    ("antibody Hz38G10(N55Q) (antibody, V domains shown, Variant of Hz38G10) VH: QVQLVQSGAEVKKPGASVKVSCKASGYTFTDFYMDWVRQAPGQRLEWMGYIYPHQGGTTYNQQFTGRVTITVDKSASTAYMELSSLRSEDTAVYYCARRGGFDFDYWGQGTLVTVSS VL: DIQMTQSPSSLSASVGDRVTITCKASENVDTYVSWYQQKPGKAPKLLIYGASNRYTGVPSRFSGSGSGTDFTFTISSLQPEDIATYHCGQSHSYPLTFGQGTKLEIK", 0.82),
    ("antibody Hz38G10(N55E) (antibody, V domains shown, Variant of Hz38G10) VH: QVQLVQSGAEVKKPGASVKVSCKASGYTFTDFYMDWVRQAPGQRLEWMGYIYPHEGGTTYNQQFTGRVTITVDKSASTAYMELSSLRSEDTAVYYCARRGGFDFDYWGQGTLVTVSS VL: DIQMTQSPSSLSASVGDRVTITCKASENVDTYVSWYQQKPGKAPKLLIYGASNRYTGVPSRFSGSGSGTDFTFTISSLQPEDIATYHCGQSHSYPLTFGQGTKLEIK", 6.2),
]
